- Measured Target: T1, IL-18 binding protein (IL-18BP) (UniProt O95998 31-194)
- T1 sequence (looked up): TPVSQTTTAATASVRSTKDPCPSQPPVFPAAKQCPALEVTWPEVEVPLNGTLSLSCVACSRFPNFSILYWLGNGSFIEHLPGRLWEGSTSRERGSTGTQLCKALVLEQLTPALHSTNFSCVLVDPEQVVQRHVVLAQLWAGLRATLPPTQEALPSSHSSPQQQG
- Method Summary: cell-based or functional assay
Exam item: assign satisfied to entries whose Ratio (-BP/+BP), DF-5000006 is below 1 and not satisfied to entries at or above 1. Note that a value of exactly 1 receives not satisfied.

IL-18 variant G3S, E6Q, K53N, D54T, S55N, T63A, I80T, N91S (ligand) YFSKLQSKLSVIRNLNDQVLFIDQGNRPLFEDMTDSDMRDNAPRTIFIISMYNTNQPRGMAVAISVKSEKISTLSSENKTISFKEMNPPDSIKDTKSDIIFFQRSVPGHDNKMQFESSSYEGYFLASEKERDLFKLILKKEDELGDRSIMFTVQNED = not satisfied

### Prompt Does IL-18 variant G3P, E6K, K53M, D54W, S55N, T63S, N91I (ligand) YFPKLKSKLSVIRNLNDQVLFIDQGNRPLFEDMTDSDMRDNAPRTIFIISMYMWNQPRGMAVSISVKSEKISTLSSENKIISFKEMNPPDIIKDTKSDIIFFQRSVPGHDNKMQFESSSYEGYFLASEKERDLFKLILKKEDELGDRSIMFTVQNED have Ratio (-BP/+BP), DF-5000006 strictly under 1?
### Response not satisfied

### Prompt Again, but for IL-18 variant G3Q, E6N, K53T, D54A, N91K, R104P (ligand) YFQKLNSKLSVIRNLNDQVLFIDQGNRPLFEDMTDSDMRDNAPRTIFIISMYTASQPRGMAVTISVKSEKISTLSSENKIISFKEMNPPDKIKDTKSDIIFFQPSVPGHDNKMQFESSSYEGYFLASEKERDLFKLILKKEDELGDRSIMFTVQNED
### Response satisfied

### Prompt Again, but for IL-18 variant G3S, E6H, K53Y, D54P, S55Y, T63S, N91A, R104S (ligand) YFSKLHSKLSVIRNLNDQVLFIDQGNRPLFEDMTDSDMRDNAPRTIFIISMYYPYQPRGMAVSISVKSEKISTLSSENKIISFKEMNPPDAIKDTKSDIIFFQSSVPGHDNKMQFESSSYEGYFLASEKERDLFKLILKKEDELGDRSIMFTVQNED
### Response not satisfied

### Prompt Again, but for IL-18 variant G3Q, E6N, D54Y, S55P, T63S, N91S, R104H (ligand) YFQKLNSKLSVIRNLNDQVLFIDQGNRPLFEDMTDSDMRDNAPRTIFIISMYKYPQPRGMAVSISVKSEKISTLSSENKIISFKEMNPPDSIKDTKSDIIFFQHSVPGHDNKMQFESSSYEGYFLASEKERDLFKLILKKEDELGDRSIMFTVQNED
### Response not satisfied

### Prompt Again, but for IL-18 variant G3D, E6Q, R27S, K53R, D54A, S55R, T63S, N91Q (ligand) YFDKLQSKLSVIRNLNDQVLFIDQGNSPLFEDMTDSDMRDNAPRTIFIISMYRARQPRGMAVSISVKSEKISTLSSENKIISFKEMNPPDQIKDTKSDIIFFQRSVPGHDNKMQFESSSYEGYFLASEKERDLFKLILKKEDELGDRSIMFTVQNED
### Response not satisfied

### Prompt Again, but for IL-18 variant E6D, D54T, S55W, T63S, N91S, R104T (ligand) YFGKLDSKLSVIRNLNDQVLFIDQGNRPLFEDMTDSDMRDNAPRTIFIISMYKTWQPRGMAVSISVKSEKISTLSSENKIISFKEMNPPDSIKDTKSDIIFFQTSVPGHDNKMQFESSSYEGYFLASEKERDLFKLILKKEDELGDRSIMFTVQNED
### Response not satisfied

### Prompt Again, but for IL-18 variant G3P, E6S, K53R, D54Y, S55P, T63I, N91K (ligand) YFPKLSSKLSVIRNLNDQVLFIDQGNRPLFEDMTDSDMRDNAPRTIFIISMYRYPQPRGMAVIISVKSEKISTLSSENKIISFKEMNPPDKIKDTKSDIIFFQRSVPGHDNKMQFESSSYEGYFLASEKERDLFKLILKKEDELGDRSIMFTVQNED
### Response satisfied

### Prompt Again, but for IL-18 variant G3P, E6K, D54Y, S55P, T63S, N91S, R104Q, Q154R (ligand) YFPKLKSKLSVIRNLNDQVLFIDQGNRPLFEDMTDSDMRDNAPRTIFIISMYKYPQPRGMAVSISVKSEKISTLSSENKIISFKEMNPPDSIKDTKSDIIFFQQSVPGHDNKMQFESSSYEGYFLASEKERDLFKLILKKEDELGDRSIMFTVRNED
### Response not satisfied

### Prompt Again, but for IL-18 variant G3P, E6R, D54W, S55Q, T63S, N91T, R104H (ligand) YFPKLRSKLSVIRNLNDQVLFIDQGNRPLFEDMTDSDMRDNAPRTIFIISMYKWQQPRGMAVSISVKSEKISTLSSENKIISFKEMNPPDTIKDTKSDIIFFQHSVPGHDNKMQFESSSYEGYFLASEKERDLFKLILKKEDELGDRSIMFTVQNED
### Response satisfied
